- procedureSummary: Cmax in Swiss albino mouse at 10 mg/kg, ip by LC/MS/MS method
- Type: ADME, organism-based
- Parameters: dose 10 mg/kg, route intraperitoneal
- settings: in vivo
recordedEndpoint: Cmax (ng/mL)

smilesStr | recordedEndpoint | unitAnnotation | numericResult
Cc1ccc(-n2c(=O)ccc3ccc4ccc(-c5cnn(C)c5)cc4c32)cc1NC(=O)/C=C/CN(C)C | Cmax | ng/mL | 787

====

- procedureSummary: Cmax in Swiss albino mouse at 2 mg/kg, iv by LC/MS/MS method
- Format: ADME, organism-based
- Design: dose 2 mg/kg, route intravenous
- settings: in vivo

smilesStr | Cmax
Cc1ccc(-n2c(=O)ccc3ccc4ccc(-c5cnn(C)c5)cc4c32)cc1NC(=O)/C=C/CN(C)C | 462 ng/mL

====

- procedureSummary: AUC (infinity) in Swiss albino mouse at 10 mg/kg, po by LC/MS/MS method
- Assay type: ADME, organism-based
- Parameters: dose 10 mg/kg, route oral, time infinity
- settings: in vivo

smilesStr | unitAnnotation | AUC(0-inf)
Cc1ccc(-n2c(=O)ccc3ccc4ccc(-c5cnn(C)c5)cc4c32)cc1NC(=O)/C=C/CN(C)C | ng·h/mL | 118

====

- Test system: dengue virus type 2
- procedureSummary: Antiviral activity against Dengue virus serotype 2 strain New Guinea C infected in HuH7 cells assessed as reduction in log-fold change by measuring focus forming unit at 2 uM measured at 24 hrs post infection by focus forming assay relative to control
- Assay type: functional, Thailand/NGS-C/1944
Entries and their Activity values follow.

smilesStr | targetEntity | unitAnnotation | Activity
C=CC(=O)Nc1cc(-n2c(=O)ccc3cnc4ccc(-c5ccc6c(c5)OCO6)cc4c32)ccc1C | dengue virus type 2 | log10FFU/ml | 2.8
C=CC(=O)N1CCc2ccc(-n3c(=O)n(C)c4cnc5ccc(-c6cnn(C)c6)cc5c43)cc21 | dengue virus type 2 | log10FFU/ml | 2.5
C=CC(=O)Nc1cc(-n2c(=O)ccc3cnc4ccc(-c5cnn(C)c5)cc4c32)ccc1C(=O)O | dengue virus type 2 | log10FFU/ml | 0
C=CC(=O)Nc1cc(-n2c(=O)ccc3cnc4ccc(-c5cn[nH]c5)cc4c32)ccc1C | dengue virus type 2 | log10FFU/ml | 0.8
C=CC(=O)Nc1cc(-n2c(=O)ccc3ccc4ccc(-c5ccc6ccncc6c5)cc4c32)ccc1C | dengue virus type 2 | log10FFU/ml | 1.9
C=CC(=O)Nc1cc(-n2c(=O)ccc3cnc4ccc(-c5cnc6ccccc6c5)cc4c32)ccc1C | dengue virus type 2 | log10FFU/ml | 2.7
C=CC(=O)Nc1cc(-n2c(=O)ccc3cnc4ccc(N5CCN(c6ccccc6)CC5)cc4c32)ccc1C | dengue virus type 2 | log10FFU/ml | 0.1
C=CC(=O)N1CCc2ccc(-n3c(=O)ccc4cnc5ccc(-c6cnn(C)c6)cc5c43)cc21 | dengue virus type 2 | log10FFU/ml | 4
C=CC(=O)Nc1cc(-n2c(=O)ccc3cnc4ccc(-c5cnn(C)c5)cc4c32)ccc1C | dengue virus type 2 | log10FFU/ml | 1
C=CC(=O)Nc1cc(-n2c(=O)ccc3ccc4ccc(-c5cnn(C)c5)cc4c32)ccc1C | dengue virus type 2 | log10FFU/ml | 4
C=CC(=O)Nc1cc(-n2c(=O)ccc3cnc4ccc(-c5cnn(C)c5)cc4c32)ccc1OCCNC(C)=O | dengue virus type 2 | log10FFU/ml | 1.1
C=CC(=O)Nc1cc(-n2c(=O)ccc3cnc4ccc(-c5ccc(N)nc5)cc4c32)ccc1C | dengue virus type 2 | log10FFU/ml | 0.8
C=CC(=O)N1CCc2ccc(-n3c(=O)ccc4cnc5ccc(-c6ccc(S(=O)(=O)NC(C)(C)C)cc6)cc5c43)cc21 | dengue virus type 2 | log10FFU/ml | 0
C=CC(=O)N1CCc2ccc(N3C(=O)NCc4cnc5ccc(-c6cnn(C)c6)cc5c43)cc21 | dengue virus type 2 | log10FFU/ml | 0.1
C=CC(=O)Nc1cc(-n2c(=O)ccc3cnc4ccc(Nc5cnn(C)c5)cc4c32)ccc1C | dengue virus type 2 | log10FFU/ml | 0
C=CC(=O)Nc1cc(-n2c(=O)ccc3cnc4ccc(-c5cnn(C)c5)cc4c32)ccc1F | dengue virus type 2 | log10FFU/ml | 4
C=CC(=O)Nc1cc(-n2c3c(ccc2=O)CCc2ccc(-c4ccc5ccncc5c4)cc2-3)ccc1C | dengue virus type 2 | log10FFU/ml | 0.5
C=CC(=O)Nc1cc(-n2c(=O)ccc3ccc4ccc(-c5cn[nH]c5)cc4c32)ccc1C | dengue virus type 2 | log10FFU/ml | 2
